TARGET: Lysophosphatidic acid receptor 5 (Homo sapiens, UniProt Q9H1C0)
Sequence (Q9H1C0 whole entry): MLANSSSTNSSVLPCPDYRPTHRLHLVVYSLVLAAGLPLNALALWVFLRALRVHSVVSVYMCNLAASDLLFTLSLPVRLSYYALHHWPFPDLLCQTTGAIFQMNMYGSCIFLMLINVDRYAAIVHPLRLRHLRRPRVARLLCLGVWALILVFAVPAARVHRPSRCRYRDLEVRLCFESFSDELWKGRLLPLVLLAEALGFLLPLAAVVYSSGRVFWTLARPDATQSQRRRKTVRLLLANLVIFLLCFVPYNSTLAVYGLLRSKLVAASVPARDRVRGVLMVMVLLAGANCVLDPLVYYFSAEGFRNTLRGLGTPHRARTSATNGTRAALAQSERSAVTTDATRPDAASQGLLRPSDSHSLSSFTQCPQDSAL
MEASUREMENT_NOTES: Antagonist activity at human recombinant LPA5 receptor expressed in rat RH7777 cells assessed as inhibition of hexadecyl-LPA-induced effect
REPORTED_METRIC: IC50 (nM)
Report only the number, with the unit nM understood.

QUERY: Consider the compound "COc1cccc(-n2nc(C(=O)O)cc2-c2ccc(C3CCCCC3)c(Cl)c2)c1" . State its measured IC50.
RESULT: 800
